Reported Biodistribution: Lacrimal gland by item:
# System: NRG-mice bearing LNCaP tumors
# TEST: Biodistribution (and PET/SPECT imaging) in NRG-mice bearing LNCaP tumors
# Format: in vivo
# TEST_CONTEXT: 72 h p.i., Avg
*1 amine or outer side, *2 acyl side, *3 side chain or, on linkers, in order; H or OH if unused. Where a SMILES comes first, the peptide text is derived from it. [ ]: non-standard residue; d: D form. The star is where a group is joined. ξ: configuration not given here. ξLys(Nα-CO-ξAad) = O=C(O)CCCC(NC(=O)NC(CCCCN*)C(=O)O)C(=O)O; Butanoyl(4-(4-NO2Ph)) = O=C(CCCc1ccc([N+](=O)[O-])cc1)*; DOTA = O=C(O)CN1CCN(CC(=O)O)CCN(CC(=O)*)CCN(CC(=O)O)CC1; Butanoyl(4-(4-MeO-phenyl)) = COc1ccc(CCCC(=O)*)cc1; ξAla(9-anthryl) = NC(Cc1c2ccccc2cc2ccccc12)C(=O)O; X2 = O=C(NC(CCCCN*)C(=O)O)NC(CC(F)C(=O)O)C(=O)O; X1 = O=C(C1CCC(CN[*:1])CC1)[*:2]; ξK = NCCCCC(N)C(=O)O
// return numeric value only (unit: % ID/g, not printed)

O=C([O-])CN1CCN(CC(=O)[O-])CCN(CC(=O)NCCCCC(NC(=O)CNC(=O)CCCc2ccc([N+](=O)[O-])cc2)C(=O)NCC(=O)NCC2CCC(C(=O)NC(Cc3c4ccccc4cc4ccccc34)C(=O)NCCCCC(NC(=O)NC(CCCC(=O)O)C(=O)O)C(=O)O)CC2)CCN(CC(=O)[O-])CC1.[225Ac+3] (stereo not shown) [^225Ac-CCZ02017] ({Butanoyl(4-(4-NO2Ph))}-G[ξK](DOTA)G[X1][ξAla(9-anthryl)]-{ξLys(Nα-CO-ξAad)}) | 1.39
COc1ccc(CCCC(=O)NCC(=O)NC(CCCCNC(=O)CN2CCN(CC(=O)[O-])CCN(CC(=O)[O-])CCN(CC(=O)[O-])CC2)C(=O)NCC(=O)NCC2CCC(C(=O)NC(Cc3c4ccccc4cc4ccccc34)C(=O)NCCCCC(NC(=O)NC(CC(F)C(=O)O)C(=O)O)C(=O)O)CC2)cc1.[177Lu+3] (stereo not shown) [^177Lu-CCZ02008] ({Butanoyl(4-(4-MeO-phenyl))}-G[ξK](DOTA)G[X1][ξAla(9-anthryl)]-X2) | 0.07

// map O=C([O-])CN1CCN(CC(=O)[O-])CCN(CC(=O)NCCCCC(NC(=O)CNC(=O)CCCc2ccc([N+](=O)[O-])cc2)C(=O)NCC(=O)NCC2CCC(C(=O)NC(Cc3c4ccccc4cc4ccccc34)C(=O)NCCCCC(NC(=O)NC(CCCC(=O)O)C(=O)O)C(=O)O)CC2)CCN(CC(=O)[O-])CC1.[177Lu+3] (stereo not shown) [^177Lu-CCZ02017] ({Butanoyl(4-(4-NO2Ph))}-G[ξK](DOTA)G[X1][ξAla(9-anthryl)]-{ξLys(Nα-CO-ξAad)}) to recorded Biodistribution: Lacrimal gland (system: NRG-mice bearing LNCaP tumors)
0.01

Query COc1ccc(CCCC(=O)NCC(=O)NC(CCCCNC(=O)CN2CCN(CC(=O)[O-])CCN(CC(=O)[O-])CCN(CC(=O)[O-])CC2)CC(=O)NCC2CCC(C(=O)NC(Cc3c4ccccc4cc4ccccc34)C(=O)NCCCCC(NC(=O)NC(CC(F)C(=O)O)C(=O)O)C(=O)O)CC2)cc1.[177Lu+3] (stereo not shown) [^177Lu-CCZ02019] next
0.00
